# TESTED SYSTEM: AChE (Homo sapiens)
# Sequence (P22303 32-614): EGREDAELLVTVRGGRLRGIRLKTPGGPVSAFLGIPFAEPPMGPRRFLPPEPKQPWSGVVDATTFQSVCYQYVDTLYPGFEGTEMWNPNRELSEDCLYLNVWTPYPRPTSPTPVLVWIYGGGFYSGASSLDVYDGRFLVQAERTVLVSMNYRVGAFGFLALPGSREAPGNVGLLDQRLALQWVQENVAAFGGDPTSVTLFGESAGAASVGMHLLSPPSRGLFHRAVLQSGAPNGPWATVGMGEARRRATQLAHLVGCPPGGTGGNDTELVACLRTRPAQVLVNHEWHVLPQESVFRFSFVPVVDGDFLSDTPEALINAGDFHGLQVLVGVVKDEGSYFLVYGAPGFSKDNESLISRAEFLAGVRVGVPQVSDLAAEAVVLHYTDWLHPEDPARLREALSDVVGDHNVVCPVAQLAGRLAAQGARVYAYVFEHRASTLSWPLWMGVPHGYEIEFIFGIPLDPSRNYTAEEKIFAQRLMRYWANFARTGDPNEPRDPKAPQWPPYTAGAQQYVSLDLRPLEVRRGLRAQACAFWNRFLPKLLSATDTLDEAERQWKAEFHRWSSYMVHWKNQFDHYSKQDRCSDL
# Format: biochemical
# RUN CONDITIONS: 1 μM
OBSERVATION TYPE: AChEI (%) 1 μM

COc1ccccc1CC(C)N(C)C(=O)Oc1cccc([C@H](C)N(C)C)c1 (stereo partly shown) [Compound 15, S-riva-methoxyphenamine]    49
C[C@@H](c1cccc(OC(=O)N(C)CCCC2c3ccccc3C=Cc3ccccc32)c1)N(C)C [Compound 6, S-riva-protriptyline]    81
C[C@@H](c1cccc(OC(=O)N(C)CCC=C2c3ccccc3CCc3ccccc32)c1)N(C)C [Compound 5A, S-riva-nortriptyline]    81
C[C@H](Cc1ccccc1)NC(=O)Oc1cccc([C@H](C)N(C)C)c1 [Compound 9, S-riva-l-amphetamine]    35

###

# TESTED SYSTEM: human recombinant acetylcholinesterase (Homo sapiens, UniProt P22303)
# Construct: purchased Sigma Chemical Co (St. Louis, Mo.) C1682
# Sequence (P22303 32-614): as above
# MEASUREMENT DESCRIPTION: biochemical
# Experimental: All reagents employed in this experiment were of analytical grade. Acetylthiocholine iodide and 5,5′-dithiobis-(2-nitro)benzoic acid (DTNB) and human recombinant acetylcholinesterase (C1682) were purchased from Sigma Chemical Co (St. Louis, Mo.). The enzyme, compound or stigmine and buffer were preincubated for 30 minutes. […] Hydrolysis of acetylthiocholine was monitored indirectly by measurement of the formation of the conjugate between thiocholine and DTNB.
Listed here are compounds together with their documented IC50.
OBSERVATION TYPE: IC50

C[C@@H](c1cccc(OC(=O)N[C@H]2C[C@@H]2c2ccccc2)c1)N(C)C (stereo in doubt)    0.2 µM
COCCCC/C(=N\OCCNC(=O)Oc1cccc([C@H](C)N(C)C)c1)c1ccc(C(F)(F)F)cc1    6.1 µM
C[C@@H](c1cccc(OC(=O)N2CC[C@@H](c3ccc(F)cc3)[C@H](COc3ccc4c(c3)OCO4)C2)c1)N(C)C    9.5 µM
